B1: Lysine-specific demethylase 2B, residues 656 to 722; numbered along this chain, Q8NHM5 (parent)
chain: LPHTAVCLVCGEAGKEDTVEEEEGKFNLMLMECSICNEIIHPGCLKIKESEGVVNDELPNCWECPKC

# Variants of: B1
# method_notes: abundance fitness (aPCA) (normalised: wild type 0, dead -1); higher = more abundant; growth selection in yeast, the domain comes from the species named
# condition_parameters: Homo sapiens
Recorded abundance fitness, one value per entry.
measurement_label: abundance fitness

>  <mutation_code>
V6E

>  <quantitative_result>
-0.378

$$$$
>  <mutation_code>
K46W

>  <quantitative_result>
-0.148

$$$$
>  <mutation_code>
E23S

>  <quantitative_result>
0.185

$$$$
>  <mutation_code>
F26M

>  <quantitative_result>
0.062

$$$$
>  <mutation_code>
E51V

>  <quantitative_result>
-0.124

$$$$
>  <mutation_code>
I47G

>  <quantitative_result>
0.011

$$$$
>  <mutation_code>
E32F

>  <quantitative_result>
-0.205

$$$$
>  <mutation_code>
C10K

>  <quantitative_result>
-0.124

$$$$
>  <mutation_code>
L58G

>  <quantitative_result>
-0.171

$$$$
>  <mutation_code>
E22G

>  <quantitative_result>
-0.009

$$$$
>  <mutation_code>
C67G

>  <quantitative_result>
-0.992

$$$$
>  <mutation_code>
N27R

>  <quantitative_result>
-0.036

$$$$
>  <mutation_code>
S50V

>  <quantitative_result>
0.039

$$$$
>  <mutation_code>
I47Q

>  <quantitative_result>
-0.167

$$$$
>  <mutation_code>
K15P

>  <quantitative_result>
-0.609

$$$$
>  <mutation_code>
G52L

>  <quantitative_result>
-0.142

$$$$
>  <mutation_code>
N60R

>  <quantitative_result>
-0.044

$$$$
>  <mutation_code>
P42H

>  <quantitative_result>
0.019

$$$$
>  <mutation_code>
C61F

>  <quantitative_result>
-0.325

$$$$
>  <mutation_code>
C64Y

>  <quantitative_result>
-0.804

$$$$
>  <mutation_code>
N55A

>  <quantitative_result>
-0.089

$$$$
>  <mutation_code>
L30T

>  <quantitative_result>
-0.212

$$$$

Ref: the Human Domainome abundance scans (Beltran et al. 2025)
